Reported pKd values are given for each entry in this list.
target_under_test: HLA-A*24:02
method_summary: IEDB peptide-MHC binding, purified MHC/competitive/radioactivity; filed as Kd, often an IC50 or EC50 that approximates it; bounds were set here for any values at or beyond the usual limits of such assays
assay_context: source organism: SARS coronavirus Tor2
pKd: −log10 of the molar value.

sequence_code: CGSVGFNIDY
pKd: ≤ 4.15
--
sequence_code: FSSRMYCSFY
pKd: ≤ 4.37
--
sequence_code: TNSVIIMAY
pKd: ≤ 4.11
--
sequence_code: PVSIINNAVY
pKd: ≤ 4.15
--
sequence_code: FFFVYENAF
pKd: ≤ 4.22
--
sequence_code: FVSLAIDAY
pKd: 4.76
--
sequence_code: EWSVATFYL
pKd: 5.75
--
sequence_code: VFNGTSWFI
pKd: ≤ 3.97
--
sequence_code: TVAYFNMVY
pKd: 4.96
--
sequence_code: FSNSGADVLY
pKd: ≤ 4.15
--
sequence_code: FADINGKLY
pKd: ≤ 4.11
--
sequence_code: FMGRIRSVY
pKd: ≤ 4.25
--
sequence_code: LDEWSVATFY
pKd: ≤ 4.48
--
sequence_code: FYTTTGIGY
pKd: ≤ 4.34
--
sequence_code: HTSSMRGVYY
pKd: ≤ 4.33
--
sequence_code: KYKYFSGAL
pKd: ≤ 4.59
--
sequence_code: VFHLYLQYI
pKd: 5.96
--
sequence_code: LCANEYTGNY
pKd: ≤ 4.15
